Test system: SNB-19
protocol text: NCI tumour cell line growth inhibition, 48 h
Calls of active or inactive are those of the source. No stated cut-off is given here; in the data, active = GI50 up to about 1.1 µM and inactive = higher.
Hi there, use one of these labels in your reply, thanks! TRUE = active, FALSE = inactive

Exercise: Test call for this compound, please: O=C(N/N=C\c1ccc([N+](=O)[O-])cc1)Nc1ccc2ccccc2c1
Key: FALSE

Exercise: Per the records of this test, what outcome belongs to CCC(CO)Nc1nc(NCc2ccccc2)c2ncn(C(C)C)c2n1 (stereo not drawn) [(RS)-ROSCOVITINE] ?
Key: FALSE

Exercise: Which outcome was entered for the compound CCOC(=O)NC(Nc1ccc(Cl)cn1)(C(F)(F)F)C(F)(F)F in this test?
Key: FALSE

Exercise: Hi, sorry to bother you, what did the test record for COC(=O)C1C(C)N1C (stereo unspecified) ?
Key: FALSE

Exercise: What was the test verdict on N#Cc1c(-c2ccccc2)c(C=O)c(=O)n2c1[nH]c1ccccc12 ?
Key: FALSE

Exercise: Any idea what this test logged for C=CC(C)(C)C(=C)C(=O)N(C)c1ccccc1I ?
Key: FALSE

Exercise: Any idea what this test logged for O=C1OC2C(O)C(=O)OC2C1O (stereo unspecified) ?
Key: FALSE

Exercise: Called result for CCc1cccc(C(C)CC)c1/N=C(/NC(=O)c1ccccc1C(=O)N/C(=N/c1c(CC)cccc1C(C)CC)SC)SC (stereo unspecified)
Key: FALSE

Exercise: What is the recorded call for this compound in the test? C/C(=N\Nc1nc2ccccc2[nH]1)c1ncccn1
Key: TRUE

Exercise: Dear all, I need the recorded test outcome for Nc1nc(N)c(-c2ccc(Cl)cc2)c(CCC(=O)Nc2cccc(C(F)(F)F)c2)n1 , thank you.
Key: FALSE

Exercise: In this assay, the call recorded for C[n+]1c2ccccc2c(N=[N+]=[N-])c2ccccc21 was what?
Key: FALSE
